- System: CL-11 (Colorectal Carcinoma)
- ASSAY_EXPLANATION: Bliss excess, mean over the matrix (fraction); higher = more synergy
REPORTED_PROPERTY: Bliss excess
Give only the figure.

Answer briefly: Bliss excess recorded on CL-11 (Colorectal Carcinoma) for COc1cc2c(cc1OCCCCCOc1cc3c(cc1OC)C(=O)N1C=C(C)C[C@H]1C=N3)N=C[C@@H]1CC(C)=CN1C2=O [SG3199] + O=C(c1cc(Cc2n[nH]c(=O)c3ccccc23)ccc1F)N1CCN(C(=O)C2CC2)CC1 [Olaparib] (first compound max 0.001 µM, 7x7, partner max 10 µM)
-0.016

Fill in: Bliss excess on CL-11 (Colorectal Carcinoma), entry Cc1cc2ncnn2cc1Nc1ncc2c(n1)n(C1CCOCC1)c(=O)n2C [AZD7648] + C[C@@H]1COCCN1C2=NC(=NC(=C2)C3(CC3)[S@](=N)(=O)C)C4=C5C=CNC5=NC=C4 [AZD6738] (first compound max 10 µM, 7x7, partner max 10 µM)
-0.028

----------
- Test system: NCI-H1341 (Small Cell Lung Carcinoma)
- ASSAY_EXPLANATION: Bliss excess, mean over the matrix (fraction); higher = more synergy
REPORTED_PROPERTY: Bliss excess
Reply with the value as a number alone.

Identify measured Bliss excess associated with COc1nnc2ccc(N3CCC(c4ccc(OCCN5CCN(C)C(=O)[C@H]5C)cc4)CC3)nn12 [AZD5153] + C=CCn1c(=O)c2cnc(Nc3ccc(N4CCN(C)CC4)cc3)nc2n1-c1cccc(C(C)(C)O)n1 [AZD1775] (first compound max 1 µM, partner max 1 µM)
-0.0121

Tell us which Bliss excess value is on record for C[C@@H](c1ccc2nccn2c1)n1nnc2ncc(-c3cnn(C)c3)nc21 [Savolitinib] + CC1(C)CCC(CN2CCN(c3ccc(C(=O)NS(=O)(=O)c4ccc(NCC5CCOCC5)c([N+](=O)[O-])c4)c(Oc4cnc5[nH]ccc5c4)c3)CC2)=C(c2ccc(Cl)cc2)C1 [Venetoclax] (first compound max 1 µM, 7x7, partner max 1 µM)
0.0535

Give the value of Bliss excess reported for the following: CN(CCO)CC[C@H](CSc1ccccc1)Nc1ccc(S(=O)(=O)NC(=O)c2ccc(N3CCC([C@@H](O)c4ccccc4-c4ccc(Cl)cc4)CC3)cc2)cc1S(=O)(=O)C(F)(F)F [AZD4320] + CCN(CCO)CCCOc1ccc2c(Nc3cc(CC(=O)Nc4cccc(F)c4)[nH]n3)ncnc2c1 [AZD2811] (first compound max 1 µM, 7x7, partner max 1 µM)
0.0422

----------
- Tested on: SAT (Head and Neck Carcinoma)
- ASSAY_EXPLANATION: combination Emax (second highest fraction inhibited in the dose matrix, 72 h); higher = more inhibition; extreme values may be limits of the assay
REPORTED_PROPERTY: combination Emax
// no unit, no text: just the number

Given Cc1cc2ncnn2cc1Nc1ncc2c(n1)n(C1CCOCC1)c(=O)n2C [AZD7648] + CN(C)CCCOc1ccc(-c2ccc3ncc4c(c3c2)n(C2CCOCC2)c(=O)n4C)cn1 [AZD0156] (first compound max 10 µM, 7x7, partner max 1 µM) , respond with its combination Emax.
0.378

Specify reported combination Emax for the compound shown: Cc1c2c(nn1C)CSCc1cc(n(C)n1)CSc1cc(c3ccccc3c1)OCCCc1c(C(=O)O)n(C)c3c-2c(Cl)ccc13 [AZD5991] + Cc1cc2ncnn2cc1Nc1ncc2c(n1)n(C1CCOCC1)c(=O)n2C [AZD7648] (first compound max 1 µM, 7x7, partner max 10 µM)
0.664

Report measured combination Emax; entry is COc1nnc2ccc(N3CCC(c4ccc(OCCN5CCN(C)C(=O)[C@H]5C)cc4)CC3)nn12 [AZD5153] + Cc1c2c(nn1C)CSCc1cc(n(C)n1)CSc1cc(c3ccccc3c1)OCCCc1c(C(=O)O)n(C)c3c-2c(Cl)ccc13 [AZD5991] (first compound max 1 µM, 7x7, partner max 1 µM)
0.914

For Cc1nc(Nc2ncc(C(=O)Nc3c(C)cccc3Cl)s2)cc(N2CCN(CCO)CC2)n1 [Dasatinib] + CC(=O)Nc1cccc(-n2c(=O)n(C3CC3)c(=O)c3c(Nc4ccc(I)cc4F)n(C)c(=O)c(C)c32)c1 [Trametinib] (first compound max 2 µM, 7x7, partner max 1 µM) , write its combination Emax.
0.826
